Hey, just so you know, these numbers are from ChEMBL document CHEMBL4706761.

# ASSAYED TARGET: microRNA 21
# PROCEDURE DETAILS: Inhibition of 5'-FAM/3'-DAB-labeled UGUCGGGUAGCUUAUCAGACUGAUGUUGACUGUUGAAUCUCAUGGCAACACCAGUCGAUGGGCUGUCUGACA pre-miRNA-21 (unknown origin) biogenesis incubated for 30 mins in presence of human recombinant dicer by FRET based assay
# Format: nucleic-acid assay
ASSAY METRIC: IC50

q: Give its IC50 value. Item: Cc1ccc(C(=O)Nc2nc(-c3cccc(NC(=O)CCC(=O)N[C@@H](Cc4cn(C[C@H]5O[C@@H](O[C@@H]6[C@@H](O)[C@H](N)C[C@H](N)[C@H]6O[C@H]6O[C@H](CN)[C@@H](O)[C@H](O)[C@H]6N)[C@H](O)[C@@H]5O[C@H]5O[C@@H](CN)[C@@H](O)[C@H](O)[C@H]5N)nn4)C(=O)N[C@@H](C)C(N)=O)c3)cs2)cc1
a: < 5 µM
